Target: Transcriptional activator protein LasR (Pseudomonas aeruginosa (strain ATCC 15692 / PAO1 / 1C / PRS 101 / LMG12228))
Sequence (whole entry): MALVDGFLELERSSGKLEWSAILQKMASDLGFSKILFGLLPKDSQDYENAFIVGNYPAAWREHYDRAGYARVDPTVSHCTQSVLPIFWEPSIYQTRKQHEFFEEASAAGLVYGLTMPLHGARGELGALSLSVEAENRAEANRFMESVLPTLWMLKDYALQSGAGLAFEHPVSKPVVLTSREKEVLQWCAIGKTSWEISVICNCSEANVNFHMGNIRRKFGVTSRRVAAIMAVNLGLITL
Assay: Agonist activity at Pseudomonas aeruginosa LasR expressed in Escherichia coli JLD271 harboring LasR expression plasmid pJN105L and lasI-lacZ transcriptional fusion reporter pSC11-L measured after 35 mins by Miller-type beta-galactosidase reporter gene assay relative to OdDHL
Property: Activity; scope: individual compounds
Note to self: number, then unit, no commentary.

Known results for compounds:
CCCCCCCCCC(=O)CC(=O)N[C@H]1CCO[C@@H]1O
96%
CCCCCCCCCC(=O)CC(=O)N[C@H]1CCSC1=O
100%
CCCCCCCCCC(=O)CC(=O)N[C@@H]1CCOC1=O
99%
CCCCCCCCCCCS(=O)(=O)N[C@H]1CCOC1=O
6.4%
CCCCCCCCCC(=O)CC(=O)N[C@H]1CCCC1=O
110%
CCCCCCCCCC(=O)CC(=O)O[C@H]1CCOC1=O
27%
CCCCCCCCCC(=O)CC(=O)N[C@H]1CCOC1
81%
CCCCCCCCCC(=O)CC(=O)NC1CCCC1
88%

Data request: State, in one line, measured Activity of CCCCCCCCCC(=O)CC(=O)NCC1CCCO1 (stereo not given)
Data returned: 96%

Data request: State, in one line, measured Activity of CCCCCCCCCC(=O)CC(=O)N[C@H]1CCNC1=O
Data returned: 110%

The origin of these recorded values is ChEMBL document CHEMBL4270523.
